# Test system: MOLT-4 leukemia
# protocolNotes: NCI-60 one-dose screen, 48 h (100 = growth as untreated, 0 = no growth, -100 = all killed)
# testSettings: 10 µM unless noted
Compounds without any hit were thinned out: in the full panel of roughly 83,000, 20% have a hit. Active and inactive are the calls of the source. The calls were made as follows: active = growth percent below 10; inactive = the rest.
assayReadout: growth

Here is how some molecules turned out for growth.
| molecule | growth |
| --- | --- |
| Cc1cc(=O)[nH]c(/C(=N/Nc2ccccc2)C(=O)c2ccc(Cl)cc2)n1 | 39.8% (inactive) |
| COc1ccc(/C=C/C(=O)c2cccc(NS(C)(=O)=O)c2)cc1 | 40.8% (inactive) |
| O=C(COc1cccc(/C=C2\Oc3ccc4ccccc4c3C2=O)c1)c1ccc([N+](=O)[O-])cc1 | 32% (inactive) |
| Cc1sc2nc(NCc3ccccc3)[nH]c(=O)c2c1C | 44% (inactive) |
| NC(=NCCCCCCN=C(N)/N=C(\N)Nc1ccc(Cl)cc1)/N=C(\N)Nc1ccc(Cl)cc1 | 21.2% (inactive) |

// each molecule listed below needs its growth
1. O=C1/C=C/[C@@H](O)[C@@H]2C[C@@H](O)C[C@H]2/C=C/CCC[C@H](CO)O1
2. Cc1cc2c(cc1C)[n+](Cc1ccc3ccccc3n1)cn2Cc1ccc2ccccc2n1
3. CCN(CC)c1ccc(/C=C/C(=O)c2cccc(NS(C)(=O)=O)c2)cc1
4. Nc1nc2c(c(=O)[nH]1)C1(C(=O)Nc3ccccc31)c1c(nc(N)[nH]c1=O)N2
5. CS(=O)(=O)N1CCN(Cc2cc3nc(-c4cccc5[nH]ncc45)nc(N4CCOCC4)c3s2)CC1 (tested in a mixture with another compound)
6. COc1cc(-c2nnc(-c3nc(-c4cc(OC)c(OC)c(OC)c4)n4ccccc34)o2)ccc1N
7. CC[N+](CCCCCCCCCC[N+](CC)(c1ccccn1)c1ccccn1)(c1ccccn1)c1ccccn1

*A*
1. -16.9% (active)
2. 7.97% (active)
3. 8.78% (active)
4. 90% (inactive)
5. 8.77% (active)
6. 64.6% (inactive)
7. -8.33% (active)

// each molecule listed below needs its growth
1. CC(C)N(Cc1ccccc1)c1c(Cl)ssc1=O
2. O=C(c1ccccc1)C(CN1CCCCC1)c1ccccc1 (centres undefined)
3. CC(=O)c1nn(-c2ccccc2)c(=Nc2ccccc2)cc1C
4. COC(=O)[C@H](CCCCNC(=O)OCc1ccccc1)NC(=O)[C@@H](NC(=O)Nc1cc(C(F)(F)F)cc(C(F)(F)F)c1)C(C)C
5. O=C(NC1CCS(=O)(=O)C1)c1ccc(C(=O)c2ccccc2)cc1 (centres undefined)
6. COc1c(O)cc2c(c1CC=C(C)C)OC(=O)c1c(cc(O)c(CC=C(C)C)c1O)O2
7. C[C@@H]1[C@H]2[C@H](C=C3[C@@H]4CC[C@H]5Cc6nc7c(nc6C[C@]5(C)[C@H]4C[C@@H](O)[C@@]32C)C[C@@H]2CC[C@H]3C4=C[C@@H]5O[C@@]6(CC[C@](C)(CO)O6)[C@@H](C)[C@@]5(O)[C@@]4(C)[C@H](O)C[C@@H]3[C@@]2(C)C7)O[C@]12CCC(C)(C)O2

*A*
1: 121% (inactive); 2: 0.0819% (active); 3: 94.3% (inactive); 4: -7.72% [100 µM] (active); 5: 109% (inactive); 6: 20.6% (inactive); 7: -21.1% (active)

// each molecule listed below needs its growth
1. COc1ccc2c(=O)c(OC)c(-c3cc(OC)c(OC)c(OC)c3)oc2c1
2. COc1cc(/C=C\C(C)=N\Nc2ccccc2)ccc1O

*A*
99.6% (inactive)
70.9% (inactive)

// each molecule listed below needs its growth
1. Cc1cc2ccccn2c1C(=O)c1ccc(C(=O)c2ccccc2)cc1
2. O=C(Oc1cccc2ccccc12)c1ccccc1C(=O)c1ccccc1
3. CCCCCCCSc1ncnc2[nH]ncc12
4. Nc1c(C(=O)Nc2cccc(Cl)c2)sc2nc3c(cc12)C(O)CCC3 (centres undefined)

*A*
1: 78.4% (inactive); 2: 14.8% (inactive); 3: 75.4% (inactive); 4: 16.3% (inactive)
